- experimental details: Aqueous solubility of the compound at 5 mg/ml measured after 24 hrs by HPLC method
- Type: physicochemical
- test conditions: water (aqueous)
readout: solubility at 24 h (µM)

[a] O=C1c2ccccc2NC(c2ccccc2F)N1CCOc1ccc(N2C(=O)c3ccccc3NC2c2ccccc2F)cc1 (stereo not drawn)
[b] O=C1c2ccccc2NC(c2ccccc2F)N1CCCCCN1C(=O)c2ccccc2NC1c1ccccc1F (stereo not drawn)
[c] O=C1c2ccccc2NC(c2ccccc2F)N1CCCCCCCN1C(=O)c2ccccc2NC1c1ccccc1F (stereo not drawn)
[d] O=C1c2ccccc2NC(c2ccccc2F)N1CCCCCCN1C(=O)c2ccccc2NC1c1ccccc1F (stereo not drawn)
(Q) Sort ascending by solubility at 24 h. Record the ranking as a list of labels in the requested order.
(A) a, b, d, c
(a: 3.2 µM, b: 8.9 µM, d: 14 µM, c: 30.9 µM)

[I] Cc1ccc(-n2nc3c(=O)n(CCCN4CCC(N5C(=O)c6ccccc6NC5c5ccccc5F)CC4)nc(C)c3c2C)cc1 (stereo not drawn)
[II] O=C1c2ccccc2NC(c2ccccc2F)N1CCN1CCC(N2C(=O)c3ccccc3NC2c2ccccc2F)CC1 (stereo not drawn)
(Q) Could you determine which record has the numerically smaller solubility at 24 h? Candidates: I and II Refer to your chosen entry by its label in the reply.
(A) II
(II: 70.6 µM, I: 403 µM)

[P] Cc1ccc(-n2nc3c(=O)n(CCC(=O)N4CCC(N5C(=O)c6ccccc6NC5c5ccccc5F)CC4)nc(C)c3c2C)cc1 (stereo in doubt; 3b)
[Q] O=C1c2cccc3cccc(c23)N1c1ccc(-c2ccccc2)cc1
(Q) Of P and Q , whose reported solubility at 24 h is the larger number? The response must carry the label of the picked entry.
(A) P
(P: 268 µM, Q: 0.37 µM)
